Value source: the Immune Epitope Database (IEDB)

- measuredTarget: HLA-B*07:02
- experimentNotes: IEDB peptide-MHC binding, purified MHC/competitive/radioactivity; filed as Kd, often an IC50 or EC50 that approximates it; bounds were set here for any values at or beyond the usual limits of such assays
- conditionNotes: source organism: Dengue virus 4 Philippines/H241/1956
experimentalEndpoint: Kd (nM)
Please give a number only; it is taken to be in nM.

(Q) Output measured Kd for this item: NPTTLIASL
(A) 210

* * *

Quick list: pKd per entry.
- measuredTarget: HLA-A*69:01
- experimentNotes: IEDB peptide-MHC binding, purified MHC/competitive/fluorescence; filed as Kd, often an IC50 or EC50 that approximates it; bounds were set here for any values at or beyond the usual limits of such assays
- conditionNotes: source organism: Burkholderia mallei SAVP1
pKd: −log10 of the molar value.

RFNAIWFNH | ≤ 4.70

Attention now turns to another entry.
(Q) Given the sequence RLDARLQVL , write its reported pKd.
(A) ≤ 4.70

* * *

- measuredTarget: HLA-B*57:01
- experimentNotes: IEDB peptide-MHC binding, purified MHC/competitive/fluorescence; filed as Kd, often an IC50 or EC50 that approximates it; bounds were set here for any values at or beyond the usual limits of such assays
- conditionNotes: source organism: Orthohantavirus sinnombreense
pKd: −log10 of the molar value.
experimentalEndpoint: pKd

(Q) Please give the documented pKd of KLHRYIDSM
(A) ≤ 4.70

* * *

- measuredTarget: HLA-B*15:17
- experimentNotes: IEDB peptide-MHC binding, purified MHC/direct/fluorescence; filed as Kd, often an IC50 or EC50 that approximates it; bounds were set here for any values at or beyond the usual limits of such assays
- conditionNotes: source organism: West Nile virus
experimentalEndpoint: pKd
Answer as the number alone; pKd is minus log10 of concentration in mol/L.

(Q) Hello, please tell me recorded pKd for this one: GSRAIWFMW
(A) 7.20

* * *

- measuredTarget: HLA-B*40:01
- experimentNotes: IEDB peptide-MHC binding, purified MHC/direct/fluorescence; filed as Kd, often an IC50 or EC50 that approximates it; bounds were set here for any values at or beyond the usual limits of such assays
- conditionNotes: source organism: Mycobacterium tuberculosis
pKd: −log10 of the molar value.
experimentalEndpoint: pKd

ALFDRPAFK | ≤ 4.70
QINELHHSK | ≤ 4.70

We next turn to a different sequence, shown below.
(Q) Assign pKd to the following record: REAKATRPL
(A) 7.09

* * *

- measuredTarget: HLA-B*15:17
- experimentNotes: IEDB peptide-MHC binding, purified MHC/competitive/fluorescence; filed as Kd, often an IC50 or EC50 that approximates it; bounds were set here for any values at or beyond the usual limits of such assays
- conditionNotes: source organism: Orthohantavirus sinnombreense
experimentalEndpoint: Kd

(Q) Under HLA-B*15:17: report Kd of KLHRYIDSM .
(A) ≥ 20 µM

* * *

- measuredTarget: HLA-B*51:01
- experimentNotes: IEDB peptide-MHC binding, purified MHC/competitive/fluorescence; filed as Kd, often an IC50 or EC50 that approximates it; bounds were set here for any values at or beyond the usual limits of such assays
- conditionNotes: source organism: Orthohantavirus sinnombreense
experimentalEndpoint: Kd

(Q) Quick one: give measured Kd for KLHRYIDSM
(A) ≥ 20 µM

* * *

- measuredTarget: HLA-A*68:01
- experimentNotes: IEDB peptide-MHC binding, purified MHC/competitive/radioactivity; filed as Kd, often an IC50 or EC50 that approximates it; bounds were set here for any values at or beyond the usual limits of such assays
- conditionNotes: source organism: Lassa virus Josiah
experimentalEndpoint: pKd
Value format note: pKd is -log10 of concentration (mol/L); just state the number.

RTRDIYISRR | 5.77

# ---- query sequence ----
(Q) Give the value of pKd reported for the following: KTWMDIEGR
(A) 5.74
